- Test system: A498 renal
- assay.method.text: NCI tumour cell line growth inhibition, 48 h; in the data active = GI50 below about 0.43 µM; inactive = the rest
Answer with one of the outcomes T (active), F (inactive)

INSERT INTO results (compound, assigned_category) VALUES
  ('CCN(CC)C(=S)[S][Bi]([S]C(=S)N(CC)CC)[S]C(=S)N(CC)CC', 'F'),
  ('C/C=C(/C)C(=O)O[C@H]1[C@H](O)CC(c2ccc3c(c2O)C(O)=C2C(=O)C4(OC)C(O)=C(C(N)=O)C(=O)[C@H](CC(=O)c5ccccc5O)C4CC2[C@@]3(C)OC)O[C@@H]1C (stereo partly drawn)', 'T');

Field: next compound
Field: outcome | Entry: NC(=S)NN=C1CSSC1
F
